Item-by-item account of protein stability index
B1: ZNF511 (parent)
chain: YEHHYHTLHGNVCSFCKRAFPSGH

# Variants of: B1
# EXPERIMENTAL DETAILS: protein stability index of a GFP-peptide fusion (GPS, HEK-293T) (PSI 1-6); higher = more stable;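 further: lentivirally expressed fusions sorted by FACS into six bins by GFP to DsRed ratio, PSI derived from sequencing read proportions per bin multiplied by bin number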
# CONDITIONS USED: c terminus: a fixed tail appended

VARIANT ID	protein stability index
V12S	2.41
N11K	2.31
C16W	1.62
K17E	2.59
H6R	1.38
F15Q	3.25
V12P	2.31
N11I	1.83
R18N	2.37
F15T	2.99
H24T	2.24
H4N	2.23
G10M	2.01
F15L	2.32
E2A	3.31
F15E	2.79
C16S	1.71
V12N	2.73
H6D	2.34
Y5D	3.51
H9Y	2
L8V	2.74
F20Q	2.37
R18P	2.87
R18Y	2.24
G10C	2.46
F20G	2.82
H24N	2.39
E2C	2.15
H4S	2.43
H6G	1.69
Y5C	3.95
S22V	1.84
H6W	1.66
H3I	2.18
H9L	1.5
L8I	2.44
G23M	1.92
K17S	2.22
V12F	2.05
C16K	2.35
S14P	3.3
T7F	2.06
G23N	2.51
Y1S	3.29
H3F	2.06

This collection of values is drawn from the supplement of paper PMC10567573.
